# testMethodNotes: folding enthalpy; higher = less favourable; fluorescence melt of hairpins on a sequencing array, two-state fit
# measurementConditions: sodium 0.088 M
The threshold is inclusive: folding enthalpy of exactly -20 kcal/mol counts as satisfied; values below receive not satisfied.

>  <primarySequence>
GAGCGCGAAAGCGCCCTC ((((((....)))..)))

>  <categoryLabel>
satisfied

$$$$
>  <primarySequence>
GGACACGAAAGTGCCTCC ((((((....)))..)))

>  <categoryLabel>
satisfied

$$$$
>  <primarySequence>
GCACACCGAAAGGTATGC (((.(((....))).)))

>  <categoryLabel>
not satisfied

$$$$
>  <primarySequence>
GCGGAGCGAAAGCTTCGC (((.(((....))).)))

>  <categoryLabel>
not satisfied

$$$$
>  <primarySequence>
GATCCTAAAGAGGATC ((((((....))))))

>  <categoryLabel>
not satisfied

$$$$
>  <primarySequence>
GATCATCGCAATGATC ((((((....))))))

>  <categoryLabel>
not satisfied

$$$$
>  <primarySequence>
GCAGCGCCGAAAGGCTGC (((..(((....))))))

>  <categoryLabel>
satisfied

$$$$
>  <primarySequence>
GTCTTTCGAAAGAACGAC (((.(((....))).)))

>  <categoryLabel>
not satisfied

$$$$
>  <primarySequence>
GATCAGTTTGCTGATC ((((((....))))))

>  <categoryLabel>
not satisfied

$$$$
>  <primarySequence>
GGTGAACCGAAAGGTACC (((..(((....))))))

>  <categoryLabel>
satisfied

$$$$
>  <primarySequence>
GATCAGAACCTGATC ((((((...))))))

>  <categoryLabel>
not satisfied

$$$$
>  <primarySequence>
GTGGCTCCGAAAGGACAC (((..(((....))))))

>  <categoryLabel>
satisfied

$$$$
>  <primarySequence>
GGGGCGGGAAACCGCCTC (.(((((....))))).)

>  <categoryLabel>
satisfied

$$$$
>  <primarySequence>
GGTGCGGGAAACTGCGCC ((.((.(....).)).))

>  <categoryLabel>
not satisfied

$$$$
>  <primarySequence>
GCTAGGCGAAAGCACAGC (((..((....))..)))

>  <categoryLabel>
satisfied

$$$$
>  <primarySequence>
GCCAAAGGAAACTTTGAC (.(((((....))))).)

>  <categoryLabel>
not satisfied

$$$$
>  <primarySequence>
GACAATACGAAAGTAGTC (((..(((....))))))

>  <categoryLabel>
satisfied

$$$$
>  <primarySequence>
GCATGGCGAAAGCCTGGC ((..(((....)))..))

>  <categoryLabel>
satisfied

$$$$
>  <primarySequence>
GCCCGGCGAAAGCCTCGC ((..(((....)))..))

>  <categoryLabel>
satisfied

$$$$
>  <primarySequence>
GTATCGGGAAACTGATAC (((((.(....).)))))

>  <categoryLabel>
not satisfied

$$$$
>  <primarySequence>
GATCCTTGGTAGGATC ((((((....))))))

>  <categoryLabel>
not satisfied

$$$$
>  <primarySequence>
GGGAGCGAAAGCTTGCCC ((((((....)))..)))

>  <categoryLabel>
satisfied

$$$$
>  <primarySequence>
GGCAGCGGAAACACTGCC (((((.(....).)))))

>  <categoryLabel>
not satisfied

$$$$
>  <primarySequence>
GTGTGACGAAAGTCGCAC (((.(((....))).)))

>  <categoryLabel>
not satisfied

$$$$
>  <primarySequence>
CGGACGGAAACGTCACCG ((((((....)))..)))

>  <categoryLabel>
satisfied

$$$$
>  <primarySequence>
CGAGACGGAAACGTATCG (((.(((....))).)))

>  <categoryLabel>
not satisfied

$$$$
>  <primarySequence>
GATCGCTCCGGCGATC ((((((....))))))

>  <categoryLabel>
not satisfied

$$$$
>  <primarySequence>
GATCGTCCTTACGATC ((((((....))))))

>  <categoryLabel>
not satisfied

$$$$
>  <primarySequence>
GGTCGTCGAAAGACAACC (((.(((....))).)))

>  <categoryLabel>
not satisfied

$$$$
>  <primarySequence>
GATCACTCCAGTGATC ((((((....))))))

>  <categoryLabel>
not satisfied

$$$$
>  <primarySequence>
GACCCGCGAAAGCGAGTC (((.(((....))).)))

>  <categoryLabel>
not satisfied

$$$$
>  <primarySequence>
GGGGACGAAAGTCTTCCC ((((((....)))..)))

>  <categoryLabel>
satisfied

$$$$
>  <primarySequence>
GAGTACCCGAAAGGGCTC (((..(((....))))))

>  <categoryLabel>
satisfied

$$$$
>  <primarySequence>
GCGAGGCGAAAGCGTTGC ((.(.((....)).).))

>  <categoryLabel>
satisfied

$$$$
>  <primarySequence>
GGTTGTCGAAAGACCACC (((.(((....))).)))

>  <categoryLabel>
not satisfied

$$$$
>  <primarySequence>
GCAAGAGAAATCTTGC ((((((....))))))

>  <categoryLabel>
not satisfied

$$$$
>  <primarySequence>
GATTCCGAAAGGATCATC ((((((....)))..)))

>  <categoryLabel>
satisfied

$$$$
>  <primarySequence>
GTATCGCGAAAGCGTTAC (((.(((....))).)))

>  <categoryLabel>
not satisfied

$$$$
>  <primarySequence>
GATCGGTTACCCGATC ((((((....))))))

>  <categoryLabel>
not satisfied

$$$$
>  <primarySequence>
GATCCTCTTAGGATC ((((((...))))))

>  <categoryLabel>
not satisfied

$$$$
>  <primarySequence>
GTACACGAAAGTGACTAC ((((((....)))..)))

>  <categoryLabel>
satisfied

$$$$
>  <primarySequence>
GGGCGACCGAAAGGTCCC (((..(((....))))))

>  <categoryLabel>
satisfied

$$$$
>  <primarySequence>
GGAGGGCCGAAAGGCTCC (((..(((....))))))

>  <categoryLabel>
satisfied

$$$$
>  <primarySequence>
GAGACGCGAAAGCGCTC (((.(((....))))))

>  <categoryLabel>
satisfied

$$$$
>  <primarySequence>
GTCAGAGGAAACCCTGAC (((((.(....).)))))

>  <categoryLabel>
not satisfied

$$$$
>  <primarySequence>
GTCAACGCGAAAGCGGAC (((..(((....))))))

>  <categoryLabel>
satisfied

$$$$
>  <primarySequence>
GTCCGAGCGAAAGCTGAC (((..(((....))))))

>  <categoryLabel>
satisfied

$$$$
>  <primarySequence>
GGTCGCGAAAGCGAAACC ((((((....)))..)))

>  <categoryLabel>
satisfied

$$$$
>  <primarySequence>
GGGTGCGCGAAAGCGCCC (((..(((....))))))

>  <categoryLabel>
satisfied

$$$$
>  <primarySequence>
GCCATGCCGAAAGGCGGC (((..(((....))))))

>  <categoryLabel>
satisfied

$$$$
